Item-by-item account of fold over background (A450)
target_entity: mouse TREM2 truncated stalk peptide (aa 149-163) (mouse) (UniProt Q99NH8)
test_details: ELISA on biotinylated peptide captured by streptavidin; A450 normalised to isotype control
I only need the number, in fold, no unit after it.

Query block: Form field: reported fold over background (A450) of CL0020161 (antibody, V domains shown) VH: EVQLVESGGGLVQPGRSMKLSCAALGFTFSNYYMAWVRQAPRKGLEWVASISTGGDNTYYRDSVKGRFTISRDNAKSTLYMQMDSLRSEDTATYYCVRSFIVGTTGYYFDYWGQGVMVTVSS VL: DIVLTQSPALAVSLGQRATISCKTNQNVDYYGNNYMHWYQQTPGQQPKLLIYFASNLASGIPARFSGRGSGTDFTLTIDPVEADDTATYYCQQSRNLPTFGGGTKLELK
Result block: 1.1

Query block: Form field: reported fold over background (A450) of CL0020113 (antibody, V domains shown) VH: QIQLVQSGPELKKPGESLKISCKASGYTFTDYAMQWVKQAPGKGLQYMGWINTQTGKPTYADDFKERFVFSLETSASTAYLKINNLKNDDMATYLCARSYGGEYNWIAYWGQGTLVTVSS VL: DIVMTQTPSSQAVSAGEKVTMNCKSSQSLLYNENKKNYLAWYQQKPGQSPKLLIYWASTRESGVPDRFIGSGSGTDFTLTISSVQAEDLAVYYCQQSYNFPPTFGGGTKLELK
Result block: 1.3

Query block: Form field: reported fold over background (A450) of CL0020139 (antibody, V domains shown) VH: EVQLQQSGPELVKPGASVKMSCKAPGYSFTSYLMNWVKQKPGQGLEWIGYINPYSAGSNYNEKFKDKATLTSDKSSSTAYMELRSLTSEDSAVYFCARSSYRYGFDYWGQGTTLTVSS VL: DIQMTQSSSSFSVSLGDRVTITCKASEDIYNRLAWYQQKPGNAPRLLISGATSLETGVPSRFSGSGSGKDYTLSITSLQTEDVATYSCQQYWSTPWTFGGGTKLEIK
Result block: 1.6

Query block: Form field: reported fold over background (A450) of CL0020308 (antibody, V domains shown) VH: QVQLKQSGPSLVQPSQSLSITCTVSGFSLTTYGIHWVRQSPGKGLEWLGVIWTGGSTAFNAAFMSRLSITKDNSKSQVFFKMNSLQADDTAIYYCAKVGFHSATDYWGQGTSVTVSS VL: DVLMTQTPLSLPVTLGDQASISCRSSQNLVHSNGNTYLEWYLQKPGQSPKLLIYKVSNRFSGVPDRFSGSGSGTDFTLKISRVEAEDLGLYYCFQGSHVPFTFGSGTKLEIK
Result block: 1.1

Query block: Form field: reported fold over background (A450) of CL0020123 (antibody, V domains shown) VH: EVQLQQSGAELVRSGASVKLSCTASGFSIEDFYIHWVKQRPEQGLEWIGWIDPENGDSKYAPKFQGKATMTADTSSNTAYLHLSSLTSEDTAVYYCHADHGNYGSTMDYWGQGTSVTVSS VL: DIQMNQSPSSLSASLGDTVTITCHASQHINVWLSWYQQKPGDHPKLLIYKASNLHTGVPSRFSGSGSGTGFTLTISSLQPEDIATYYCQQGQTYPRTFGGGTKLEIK
Result block: 0.9

Okay, now this binder:
Query block: Form field: reported fold over background (A450) of CL0020124 (antibody, V domains shown) VH: EVQLQQSGPVLVKPGASVKMSCKPSGYTFTDYYMNWVKQSHGKSLEWIGSINPYTGGSSYNQKFRGKATLTVDKSSSTAYMELNSLTSEDSAVYYCARGSYYSNLGFAYWGQGTLVTVSA VL: DVQLTQSPSYLTASPGETITINCRASKSISKYLAWYQEKPGKTNKLLISSGSTLQSGIPSRFSGSGSGTDFTLTISSLEPEDFAMYYCQQYSEYPFTFGSGTKLEIK
Result block: 1.7
